- target desc: GRIP2_5, Q9C0E4
- Sequence (Q9C0E4 544-642): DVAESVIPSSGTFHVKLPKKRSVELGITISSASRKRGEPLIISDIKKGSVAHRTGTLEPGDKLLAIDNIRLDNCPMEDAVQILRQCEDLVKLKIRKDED
- assay info: holdup assay
- Design: key: below the threshold = too weak to quantify, mostly under pKd 3.1 to 4
- run conditions: plain residues with an end cap or a label only (N-terminal biotin on a linker: ado-ado)
parameter measured: pKd

{"binder": "LVEEEEPMNL [HDAC7, Q8WUI4]", "parameter measured": "pKd", "observed result": "below the threshold"}
{"binder": "LPPPESESKV [KCNJ9, Q92806]", "parameter measured": "pKd", "observed result": "below the threshold"}
{"binder": "SSSVNVSSNL [CXCR1, P25024]", "parameter measured": "pKd", "observed result": "below the threshold"}
